- TEST: NCI Yeast Anticancer Drug Screen. Data for the sgs1 mgt1 strain (AID 161);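 further: 0% = growth of cultures given vehicle only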
- STATED_CONDITIONS: S. cerevisiae sgs1 mgt1 strain, at 50.0 µM, stronger effect = higher value
The panel holds about 79,000 compounds, 15% with a hit somewhere; the sample as a whole holds those more often.
PROPERTY: growth inhibition (%)
// return numeric value only (unit: %, not printed)

Sample answers from the record:
{"columns": ["MOLECULE", "RESULT_UNIT", "growth inhibition"],
 "data": [
  ["CN(C)Cc1cc(C(C)(C)C)ccc1-c1ccc(C(C)(C)C)cc1CN(C)C", "%", -39.5],
  ["Nc1ccc(NC(=O)Nc2ccc(N)cc2)cc1", "%", 16.8],
  ["COC(=O)CNC(=O)C(Cc1ccccc1)NC(=O)OCc1ccccc1 (stereo not drawn)", "%", -1.55],
  ["C/C(=N\\O)c1cccc[n+]1Cc1ccccc1", "%", -15.8],
  ["CN(C)Cc1cccc(-c2ccccc2)c1O", "%", 12]
]}

Item: O=c1[nH]nc(-c2ccccc2)c2c1[nH]c1ccccc12 | growth inhibition: -0.85

growth inhibition reported for this molecule C/C(CCc1ccccc1Br)=N/NC(N)=O : -8.55

Record summary for COc1cc(C2C3=C(COC3=O)Oc3cc4c(cc32)OCO4)ccc1OC(C)=O (stereo not drawn) : reported growth inhibition = -13.8

Form field growth inhibition, entry c1ccc([Si](c2ccccc2)(c2ccccc2)c2ccc(-c3ccc([Si](c4ccccc4)(c4ccccc4)c4ccccc4)cc3)cc2)cc1 : -8.3

Measured growth inhibition of CCNC(=O)NCC : -32.7

Form field growth inhibition, entry Cc1ccc(N=Nc2ccc([N+](=O)[O-])cc2)c([N+](=O)[O-])c1 : -4.5

====

Entries and their growth inhibition values follow.
- TEST: NCI Yeast Anticancer Drug Screen. Data for the rad50 strain (AID 155);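 further: 0% = growth of vehicle-only cultures of the same strain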
- STATED_CONDITIONS: S. cerevisiae rad50 strain growth inhibition; at 50.0 µM; stronger effect = higher value
The panel holds about 79,000 compounds, 15% with a hit somewhere; the sample as a whole holds those more often. Where a SMILES comes first, the peptide text is derived from it.
Write down the numeric answer in % and omit the unit.

// worked examples, growth inhibition included
{"columns": ["COMPOUND", "RESULT_UNIT", "growth inhibition"],
 "data": [
  ["NC(Cc1ccccc1)C(=O)NCC(=O)NC(Cc1ccccc1)C(=O)NCC(=O)O (configuration not stated) (H-FGFG-OH; configuration not given here)", "%", -4.35],
  ["O=C1c2ccccc2C(=O)C2CC(c3ccccc3)=CCC12 (configuration not stated)", "%", 10.6],
  ["O=C(O)c1cc2c([nH]1)-c1cccnc1C(=O)C2=O", "%", -9.6],
  ["CC(=O)Oc1nnc(OC(C)=O)c2cc(N)ccc12", "%", -13.3],
  ["CSc1c(C)c(C)nn1-c1ccccc1", "%", -8.35]
]}

Form: compound = CCC(c1ccccc1)c1cc(C(C)(C)C)cc(C(C)(C)C)c1O (configuration not stated) ; growth inhibition = 31.9

Measured growth inhibition of CCN(CC)CCOc1c(C)cccc1C : -5.15

====

growth inhibition reference
- TEST: NCI Yeast Anticancer Drug Screen. Data for the mlh1 rad18 strain (AID 175)
- STATED_CONDITIONS: S. cerevisiae mlh1 rad18 strain growth inhibition; at 50.0 µM; stronger effect = higher value
About 79,000 compounds went through this panel and 15% of them were active in at least one assay; those are over-represented in the sample as a whole.
# value in %; strip the unit string

Reference set (3 entries):
{"columns": ["COMPOUND", "VALUE"],
 "data": [
  ["CC(C)(C)OC(=O)NC1CCC(C(C)(C)C)CC1 (stereo unspecified)", 24.1],
  ["COC(=O)C1OC(n2ccc(=O)[nH]c2=O)C(OC(C)=O)C(OC(C)=O)C1OC(C)=O (stereo unspecified)", 6.6],
  ["CCC(C)(CC)OC(=O)c1ccc([N+](=O)[O-])cc1", 43.3]
]}

Lab note: COc1cccc(C2c3cc4c(cc3OC(C)(O)C2C)OCO4)c1OC (stereo unspecified) gave growth inhibition of 21.6

growth inhibition reported for this compound CN=NN(C)C(=O)NC : 30.4

What the record says about O=C(O)C1NCCC1Oc1ccccc1 (stereo unspecified) : growth inhibition is 2.65

The compound listed as Cc1cc(NCCN(C(C)C)C(C)C)nc(Nc2nc3ccc(Cl)cc3[nH]2)n1 has a reported growth inhibition of -44.5

The recorded growth inhibition for entry CN(C)CCN1CC2C3CCCCC3=C3CCCCC3C2C1 (stereo unspecified) equals 37.9

The compound C[N+](C)(C)CC(=O)N/N=C(\C(=O)Nc1ccc(Cl)cc1)C1C(=O)N(c2ccccc2)N=C1N (stereo unspecified) showed growth inhibition equal to 17.6

Memo: COc1ccc(NC(=O)C(F)(F)F)cc1 , reported growth inhibition: 1.75

growth inhibition reading for O=C1CCCCC1N1CCCCC1 (stereo unspecified) : 0

Measured growth inhibition of CCOc1nc(C(=O)O)cc2ccsc12 : 0

Reported growth inhibition for COc1cccc(N2C(Cl)C(=O)C2c2c[nH]c3ccccc23)c1 (stereo unspecified) was -47

====

- TEST: NCI Yeast Anticancer Drug Screen. Data for the bub3 strain (AID 167)
- STATED_CONDITIONS: S. cerevisiae bub3 mutant strain, at 50.0 µM, stronger effect = higher value
This is part of a sample that, as a whole, favours compounds with a hit. Of some 79,000 tested, about 15% had one in any assay.
PROPERTY: growth inhibition (%)
Report the figure in % without appending any unit label.

Worked set:
{"columns": ["MOLECULE", "RESULT_UNIT", "growth inhibition"],
 "data": [
  ["S=C1NCC(c2ccccc2)CN1", "%", -7.95],
  ["COc1ccc(NCC(=O)Nn2c(-c3ccccc3)nc3ccccc3c2=O)cc1", "%", 4.15],
  ["CS(=O)(=O)N1CC(CCl)c2ccc(NO)cc21 (centres undefined)", "%", 0.45]
]}

growth inhibition in this record for C[n+]1cc(N)cc2ccccc21 : 9.8

growth inhibition recorded for this molecule, NNC(=O)/C(=C/c1cccc([N+](=O)[O-])c1)NC(=O)c1ccccc1 , is -16.4

Form: molecule = CCOC(=O)c1nc2cc(C(F)(F)F)ccc2nc1Nc1ccc(OC)c(OC)c1 ; growth inhibition = -12.8

Quick note, growth inhibition for NC(=O)ON=C1CCN(Cc2ccccc2)CC1 landed at 10.2

Entry CC(C)=CCCC(C)C1CCC2C3CC=C4CC(O)CCC4(C)C3CCC12C (centres undefined) , growth inhibition reported as 12.9

Value of measured growth inhibition for the entry CC(C)CC1=C(N(C)C)C(=O)C=C(N(C)C)C1=O : -9.85

Lab book: growth inhibition of COC(=O)CCN1CCN(CCO)CC1C (centres undefined) noted as -2

Reported growth inhibition of Cc1ccc(NC(=O)/C(CC(=O)c2sc(Nc3ccccc3Cl)nc2C)=N\Nc2ccc([N+](=O)[O-])cc2[N+](=O)[O-])c(C)c1 : 4.55

// sample N=S(c1ccccc1)c1ccccc1[N+](=O)[O-] (centres undefined) , its growth inhibition was 4.35

The molecule identified as O=c1nnc(O)c2n(O)cccc1-2 registered its growth inhibition at -1.75

Memo: CC1=C(C(=O)Nc2ccccc2C)C(c2ccc(C3C(C(=O)Nc4ccccc4C)=CNC=C3C(=O)Nc3ccccc3C)cc2)C(C(=O)Nc2ccccc2C)=C(C)N1 , reported growth inhibition: 50.4

Documented growth inhibition of COc1cc(C(=O)O)c(Cc2ccccc2)c(OC)c1O : 9.05

What the record says about Cc1ccc(S(=O)(=O)OC2CCC3(C)C(=CCC4C3CCC3(C)C(C(C)CCCC(C)C)CCC43)C2)cc1 (centres undefined) : growth inhibition is 2.5

The molecule identified as CC(C)=CCc1ccc2c(c1)CCCN2C registered its growth inhibition at 20.9

// O=C1CSC(c2ccco2)N1CCN1C(=O)CSC1c1ccco1 (centres undefined) : growth inhibition value = -8.6

For Cc1cccc2c1C1c3ccccc3C(=O)CC1CC2=O (centres undefined) the molecule record lists growth inhibition as 11

The measured growth inhibition associated with Nc1ccc(C(=O)CC(N)C(=O)O)cc1O (centres undefined) reads 6.95

Documented growth inhibition of CC(C)(C)NO : 13.6

For reference, reported growth inhibition for O=C1OC(Cl)C=C1c1ccccc1 (centres undefined) stands at -23.5

Record summary for COC(=O)Cc1nn2c(nc1=O)sc1ccc3ccccc3c12 : reported growth inhibition = -3.8

For record CSc1nnc(N(C(C)C)C(C)C)c2nc[nH]c12 the listed growth inhibition is 14.7

====

- TEST: NCI Yeast Anticancer Drug Screen. Data for the cln2 rad14 strain (AID 165);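 further: 0% = growth equal to vehicle treated cultures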
- STATED_CONDITIONS: S. cerevisiae cln2 rad14 strain, at 50.0 µM
About 79,000 compounds went through this panel and 15% of them were active in at least one assay; those are over-represented in the sample as a whole. Activity calls are given as the source filed them. Rule as the data show it: active = growth inhibition above about 70%; inactive = the rest.
Respond using exactly one of the listed classes: yes for active, no for inactive

{"columns": ["MOLECULE", "ANSWER_LABEL"],
 "data": [
  ["C[C@H]1C[C@](C)(CO)Oc2oc3ccccc3c(=O)c21", "no"]
]}

Lab log entry: O=C(O)C(Cl)C(Cl)c1ccc(Cl)cc1 (configuration not stated) — outcome as called in the assay? no

So what was the verdict on CCCCNc1ncnc2c1cnn2-c1ccccc1 in this test? no

Any idea what this test logged for CC(C)(C)C(=O)CC(=O)C(C)(C)C.[Cu] ? no

The reported numbers originate from PubChem BioAssay (NCI).
